# target.system: Sphingosine kinase 2 (Homo sapiens, UniProt Q9NRA0)
# test.method.notes: Inhibition of GST-tagged full length human recombinant SPHK2 expressed in baculovirus using sphingosine as substrate preincubated for 10 mins measured after 1 hr by ADP-quest assay
pIC50: −log10 of the molar value.
measured.quantity: pIC50

given.smiles | pIC50
O=C(N/N=C/c1cccc(OCc2cccc(Cl)c2)c1)c1cc(O)c(O)c(O)c1 | 4.17
O=C(N/N=C/c1cccc(OCc2ccc(Cl)cc2)c1)c1cc(O)c(O)c(O)c1 | 4.21
N#Cc1ccccc1COc1ccc(/C=N/NC(=O)c2cc(O)c(O)c(O)c2)cc1 | 4.35

###

# target.system: UniProt:Q9NRA0
# Sequence (Q9NRA0 whole entry): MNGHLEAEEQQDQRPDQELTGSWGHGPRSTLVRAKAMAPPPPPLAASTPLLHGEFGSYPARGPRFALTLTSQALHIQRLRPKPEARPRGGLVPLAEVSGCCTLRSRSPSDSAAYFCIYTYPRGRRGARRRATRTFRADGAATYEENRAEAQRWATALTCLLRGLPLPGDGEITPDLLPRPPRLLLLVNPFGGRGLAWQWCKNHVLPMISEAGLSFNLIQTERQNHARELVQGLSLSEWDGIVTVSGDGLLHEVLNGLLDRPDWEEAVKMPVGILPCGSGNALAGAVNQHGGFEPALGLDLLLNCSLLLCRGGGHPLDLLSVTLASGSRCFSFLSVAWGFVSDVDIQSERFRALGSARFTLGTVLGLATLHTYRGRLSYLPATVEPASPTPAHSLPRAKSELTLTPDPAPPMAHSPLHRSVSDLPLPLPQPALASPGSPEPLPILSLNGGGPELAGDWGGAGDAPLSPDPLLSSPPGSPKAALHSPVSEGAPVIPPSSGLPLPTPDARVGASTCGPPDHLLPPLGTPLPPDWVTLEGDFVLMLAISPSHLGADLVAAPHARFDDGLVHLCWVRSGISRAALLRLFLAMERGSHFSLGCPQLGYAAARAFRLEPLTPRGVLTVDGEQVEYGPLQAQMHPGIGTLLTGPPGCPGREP
# test.method.notes: Inhibition of His-tagged full length human recombinant SPHK2 expressed in baculovirus infected fall armyworm Sf9 cell expression system using sphingosine as substrate by ADP-quest assay
measured.quantity: pKi
Scale for pKi: -log10 of concentration given in mol/L; no unit attached.

Item O=C(NCc1ccc(O)c(O)c1)C12CC3CC(C1)CC(c1ccc(Cl)cc1)(C3)C2 with UniProt:Q9NRA0 - pKi?
5.38

###

# target.system: Sphingosine kinase 2 (Homo sapiens)
# test.method.notes: Inhibition of GST-tagged full length human recombinant SPHK2 expressed in baculovirus using sphingosine as substrate preincubated for 10 mins measured after 1 hr by ADP-quest assay
pIC50: −log10 of the molar value.
measured.quantity: pIC50

Reference set, count: 2
given.smiles | pIC50
COc1ccccc1COc1cccc(/C=N/NC(=O)c2cc(O)c(O)c(O)c2)c1 | 4.71
O=C(N/N=C/c1cccc(OCc2ccc(C(F)(F)F)cc2)c1)c1cc(O)c(O)c(O)c1 | 4.65

I. CCCCCCCCCCCCC/C=C/[C@@H](O)[C@H](CO)N(C)C
II. CC(C)(C)c1ccc(COc2cccc(/C=N/NC(=O)c3cc(O)c(O)c(O)c3)c2)cc1
III. O=C(N/N=C/c1cccc(OCc2ccccc2C(F)(F)F)c1)c1ccc(O)c(O)c1
IV. O=C(N/N=C/c1cccc(OCc2ccccc2F)c1)c1cc(O)c(O)c(O)c1
V. COc1cccc(COc2cccc(/C=N/NC(=O)c3ccc(O)c(O)c3)c2)c1
Kindly order the items shown according to pIC50, from the highest value down. Use the labels to give the requested order.
V, III, I, II, IV
(V: 5.34, III: 4.86, I: 4.58, II: 4.21, IV: 4.00)

a. O=C(N/N=C/c1cccc(OCc2ccccc2)c1)c1cc(O)c(O)c(O)c1
b. COc1cccc(COc2ccc(/C=N/NC(=O)c3ccc(O)c(O)c3)cc2)c1
c. O=C(N/N=C/c1cccc(OCc2ccccc2C(F)(F)F)c1)c1cc(O)c(O)c(O)c1
d. CC(C)(C)c1ccc(COc2ccc(/C=N/NC(=O)c3cc(O)c(O)c(O)c3)cc2)cc1
Ascending by pIC50, please. Rank the items, then write their labels in that order.
d, a, c, b

I. N#Cc1ccc(COc2cccc(/C=N/NC(=O)c3cc(O)c(O)c(O)c3)c2)cc1
II. Cc1cccc(COc2cccc(/C=N/NC(=O)c3cc(O)c(O)c(O)c3)c2)c1
III. O=C(N/N=C/c1ccc(OCc2ccccc2C(F)(F)F)cc1)c1ccc(O)c(O)c1
Arrange the 3 entries by pIC50 so the values rise. Form field (ranking): labels in requested order.
II, I, III

A. O=C(N/N=C/c1ccc(OCc2cccc(C(F)(F)F)c2)cc1)c1cc(O)c(O)c(O)c1
B. O=C(N/N=C/c1cccc(OCc2cccc3ccccc23)c1)c1cc(O)c(O)c(O)c1
C. Cc1ccc(COc2cccc(/C=N/NC(=O)c3cc(O)c(O)c(O)c3)c2)cc1
D. COc1cccc(COc2cccc(/C=N/NC(=O)c3cc(O)c(O)c(O)c3)c2)c1
Given 4 compounds, produce a descending ranking by pIC50. Answer by listing the labels in the order asked for.
D, A, B, C
(D: 5.06, A: 4.62, B: 4.39, C: 4.18)
